# assayed_target: Dickkopf-related protein 1 (Homo sapiens) (UniProt O94907)
# Sequence (O94907 whole entry, looked up): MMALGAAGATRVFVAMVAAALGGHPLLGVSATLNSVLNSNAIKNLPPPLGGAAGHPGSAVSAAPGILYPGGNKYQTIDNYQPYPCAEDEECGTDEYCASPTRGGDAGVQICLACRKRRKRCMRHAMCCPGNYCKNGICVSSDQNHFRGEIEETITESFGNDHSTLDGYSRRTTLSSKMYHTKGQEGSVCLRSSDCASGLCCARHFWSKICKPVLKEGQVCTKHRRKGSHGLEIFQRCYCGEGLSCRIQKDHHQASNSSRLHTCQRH
# assay_details: DKK1 binders on small-molecule microarrays, primary screen, biochemical, small-molecule microarray, 635 nm fluorescence scan (AID 1106);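 note: score merges emission near 667 nm with signal to noise over three replicate slides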
# experimental_parameters: DKK1 binding, higher = more signal
Entries and their composite z-score values follow.
// keep it numeric: no unit symbol after the value

Examples with answers:
{"columns": ["smiles_representation", "assayed_target", "measured_endpoint", "value"],
 "data": [
  ["CCCC=C(CCC)[C@@H](NC(=O)c1ccccc1)c1ccccc1", "Dickkopf-related protein 1 (Homo sapiens) (UniProt O94907)", "composite z-score", -0.0056],
  ["COCCOC(=O)N1C(=O)[C@@]2(c3cc(C#CC4=CCCCC4)ccc31)[C@H](C(=O)NC[C@H](O)c1ccccc1)[C@H]1C(=O)O[C@H](c3ccccc3)[C@H](c3ccccc3)N1[C@@H]2c1ccccc1OCCO", "Dickkopf-related protein 1 (Homo sapiens) (UniProt O94907)", "composite z-score", 0.599],
  ["CCc1cccc(NC(=O)O[C@H]2[C@H](OC(=O)Nc3ccccc3)[C@@H](OC(=O)Nc3ccccc3)[C@@H](OC)O[C@@H]2CO)c1", "Dickkopf-related protein 1 (Homo sapiens) (UniProt O94907)", "composite z-score", 0.319]
]}

Would you kindly look at the next entry?
Ask: Give the reported value of composite z-score for this record: C=C(C(=O)CC[C@H](OC(=O)c1ccccc1-c1ccccc1C(=O)O)c1ccc(CO)o1)C(C)C
Reply: 0.568
